Data credit: PubChem BioAssay AID248

Tested on: L1210 leukemia ip in BDF1 mice, survival T/C
Experiment: NCI In Vivo Anticancer Drug Screen. Data for tumor model L1210 Leukemia (intraperitoneal) in B6D2F1 (BDF1) mice
Conditions: endpoint: mean survival time; dose: 400.0 mg/kg/injection; schedule: Q01DX001 (ip); vehicle: carboxymethylcellulose (CMC); higher = longer survival
Inconclusive results and toxic doses are left out.
The entries below are paired with their reported T/C.

# count of solved cases: 10
- molecule: "COc1ccc(CCO)cc1OC"
  targetDesc: "L1210 leukemia ip in BDF1 mice, survival T/C"
  T/C: "97 % of control"
- molecule: "OC(OCC(COC(O)C(Br)Br)(COC(O)C(Br)Br)COC(O)C(Br)Br)C(Br)Br (stereo unspecified)"
  targetDesc: "L1210 leukemia ip in BDF1 mice, survival T/C"
  T/C: "95 % of control"
- molecule: "COc1ccc([N+](=O)[O-])cc1NC(C)=O"
  targetDesc: "L1210 leukemia ip in BDF1 mice, survival T/C"
  T/C: "99 % of control"
- molecule: "CCOc1ccccc1C1N2CCN(CC2)C(c2ccccc2OCC)N2CCN1CC2 (stereo unspecified)"
  targetDesc: "L1210 leukemia ip in BDF1 mice, survival T/C"
  T/C: "105 % of control"
- molecule: "OCC(Cc1ccc(Cl)cc1)N1CCCCC1 (stereo unspecified)"
  targetDesc: "L1210 leukemia ip in BDF1 mice, survival T/C"
  T/C: "89 % of control"
- molecule: "O=C(CCC(=O)Nc1ccccc1)Nc1ccccc1"
  targetDesc: "L1210 leukemia ip in BDF1 mice, survival T/C"
  T/C: "102 % of control"
- molecule: "CC(=O)CO"
  targetDesc: "L1210 leukemia ip in BDF1 mice, survival T/C"
  T/C: "98 % of control"
- molecule: "CCN1C(=O)CC(SC2CC(=O)N(CC)C2=O)C1=O (stereo unspecified)"
  targetDesc: "L1210 leukemia ip in BDF1 mice, survival T/C"
  T/C: "94 % of control"
- molecule: "NC(=O)NC1c2ccccc2-c2ccccc21"
  targetDesc: "L1210 leukemia ip in BDF1 mice, survival T/C"
  T/C: "93 % of control"
- molecule: "COc1ccc(CN2CCCN(Cc3ccc(OC)cc3OC)C2c2cccc([N+](=O)[O-])c2O)c(OC)c1"
  targetDesc: "L1210 leukemia ip in BDF1 mice, survival T/C"
  T/C: "98 % of control"

Please turn your attention to the following entry.
[Q] Could you tell me which T/C is on file for "CCS(=O)(=O)c1ccc(NC(=O)OC(c2ccccc2)c2ccccc2)cc1" ?
[A] 96 % of control
